# System: P. falciparum 3D7 growth, pLDH absorbance
# test.summary: blood-stage malaria parasite growth potency – strain 3D7, dose response (AID 2305)
Provide the reported IC50 of each item.
// units = nM; emit number, no label

query: Give the measured IC50 for CN(C)Cc1cccc(-c2cc3c(-c4cnn(C)c4)c(Cl)cnc3[nH]2)c1
result: 910

query: Quickly give me recorded IC50 for CC[C@H]1CN2CC[C@H]1C[C@H]2[C@@H](O)c1cc(OCCCN(C)C)nc2ccc(OC)cc12
result: 130

query: Determine its reported IC50: Nc1ccncc1C(=O)NCCCCN1CCN(c2nsc3ccccc23)CC1
result: 800

query: Please supply the value of reported IC50 for the item Cc1ccc(NC(=O)c2cn(-c3ccccc3)nc2-c2ccc(F)cc2)cc1[N+](=O)[O-]
result: 1000

query: Provide IC50 value for the following compound: Clc1ccc(-c2ccc(C=NNc3nc(Nc4ccccc4)nc(Nc4ccccc4)n3)o2)cc1Cl
result: 740

query: Answer with the recorded IC50 for the compound listed here: COC(=O)c1ccc2nc(-c3ccc(/C=C/C(=O)NCc4ccc(Cl)c(Cl)c4)cc3)[nH]c2c1
result: 1340

query: Identify measured IC50 associated with O=C(/C=C/c1ccc(Cl)c(Cl)c1)NCCCCCN1CCC(NC(=S)Nc2ccc(Cl)c(Cl)c2)CC1
result: 530

query: Return reported IC50. Input compound: Cn1c(Cc2ccccc2)nnc1Sc1ccc(C#N)c([N+](=O)[O-])c1
result: 910

query: Provide IC50 value for the following compound: COc1ccccc1NC(=O)OC(COc1ccc(N)cc1)CN1CC=C(c2ccccc2)CC1 (centres undefined)
result: 1040

* * *

Kindly state IC50 for each of the entries shown.
# Test system: P. falciparum 3D7 growth, pLDH absorbance
# test.summary: blood-stage malaria parasite growth potency – strain 3D7, dose response (AID 2305)
Could you give me the number in µM? Just the number is fine.

query: Write IC50 of Nc1nc(N)c2c(ccc3c2ccn3Cc2ccc(OCc3ccccc3)cc2)n1 ; system used: P. falciparum 3D7 growth, pLDH absorbance
result: 0.93

query: Report its IC50 with P. falciparum 3D7 growth, pLDH absorbance as the test system: Cc1noc(C)c1-c1cccc(CNCc2cccc(-c3cccc(-c4nc5ccc(F)cc5[nH]4)c3)c2)c1
result: 0.18

query: Give reported IC50 for COc1cc2c(OC)cccc2cc1CNCCCCCCNCc1cc2cccc(OC)c2cc1OC (P. falciparum 3D7 growth, pLDH absorbance)
result: 0.82

query: Report IC50 from P. falciparum 3D7 growth, pLDH absorbance testing of O=[N+]([O-])c1ccc(Oc2c(Cl)cc(S(=O)(=O)N3CCC(CN4CCC(c5c[nH]c6ccccc56)CC4)CC3)cc2Cl)c(Cl)c1
result: 1

* * *

# System: P. falciparum 3D7 growth, pLDH absorbance
# test.summary: blood-stage malaria parasite growth potency – strain 3D7, dose response (AID 2305)
measured.property: IC50 (nM)
Write down the numeric answer in nM and omit the unit.

query: Look up and report measured IC50 for this entry: OC(CNc1ccnc(Nc2ccc(Cl)cc2)n1)c1ccccc1C(F)(F)F (centres undefined)
result: 790

query: Give a short answer stating reported IC50 for c1ccc(CNc2nc(NCCc3cnc[nH]3)nc(NCc3cccc4ccccc34)n2)cc1 .
result: 1110

query: # return recorded IC50 for input O=C(/C=C/c1ccc(Cl)c(Cl)c1)N1CCC(CNCc2cccc3cc[nH]c23)CC1
result: 1220

query: State its IC50 for this molecule: CCCC(=O)Nc1ccc(OCCCCN(CC(C)(C)C)c2ccc(C#N)c(C(F)(F)F)c2)cc1
result: 1350

query: Report measured IC50; entry is COc1ccc(CCN(C)CCCOc2ccc(NC(=O)COc3cccc4sc5ccccc5c(=O)c34)cc2)cc1OC
result: 460

query: Report IC50, nothing else, for this molecule: CC1(C)N=C(NC(=O)c2ccc([N+](=O)[O-])cc2)N=C(N)N1OCc1ccc2ccccc2c1
result: 10

query: Report measured IC50; entry is O=C(CCCCCNC(=O)c1ccc(O)c(-c2ccc(Cl)c(Cl)c2)c1)NCc1cccc2ccccc12
result: 760

query: Identify the reported IC50 for the following entry. O=S(=O)(Nc1cccc(CCN2CCCCC2CCN2CCCC2)c1)c1ccc(Oc2ccccc2)cc1 (centres undefined)
result: 1050

query: Specify IC50 for CNCCNCc1cccc(-c2ccc(-c3nc4ccccc4[nH]3)s2)c1 and stop.
result: 830

query: Name the recorded IC50 of the molecule listed here: CC(C)(C)c1ccc(CNC(=O)COc2ccc(-c3nnc(-c4cccc([N+](=O)[O-])c4)o3)cc2[N+](=O)[O-])cc1
result: 930

query: Give the reported value of IC50 for this record: CCc1cn(C)c2c(N3CCCC3=O)cc(C(=O)N[C@@H](Cc3ccccc3)[C@H](O)CNCc3cccc(OC)c3)cc12
result: 780

query: Please indicate IC50 recorded for COc1ccc(-c2nnc(Sc3ccc(C#N)c([N+](=O)[O-])c3)n2CCC(C)C)cc1
result: 1110

query: Kindly indicate its recorded IC50. Item: O=C(/C=C/c1ccc(Cl)cc1)NCCCCCN1CCN(C(=O)Nc2ccc(Cl)c(C(F)(F)F)c2)CC1
result: 920

query: Give the measured IC50 for CCOc1cc(C(=O)Nc2ccc3nc(N4CCN(C)CC4)cc(C)c3c2)cc(OCC)c1OCC
result: 850

query: Output IC50 of Fc1ccc(-c2cc3ncnc(N4CCN(CCN5CCCC5)CC4)c3s2)cc1
result: 740

query: Complete the entry with IC50 for Cc1ccc(C)c(CN2CCC(CNC(=O)c3cc4ccc5cccnc5c4[nH]3)CC2)c1
result: 990

query: Return IC50 for the following molecule: Clc1ccccc1OCc1ccccn1
result: 990

query: Specify IC50 for O=C(NCCN1CCN(S(=O)(=O)c2ccc(OC3CCNCC3)c(Br)c2)CC1)c1ccc(Cl)c(Cl)c1 and stop.
result: 890

query: Return the recorded IC50 value; entry: CCCn1c(SCC(=O)Nc2cc(Cl)ccc2Cl)n[nH]c1=O
result: 1000
